system.under.test: T1, VEGFR-1-Fc (UniProt P17948 27-338)
T1 construct: domain: first three Ig domains; expressed in Drosophila S2 cells, purified on Protein A sepharose; also called VEGFR-1-Fc fusion protein; not shown: Fc fragment from the Signal-pIgPlus vector
measurement.notes: receptor-Fc IP

binder	binding result
83-5 (ligand) AHYNTEILKFMDVYQRSYCHPIETLVDIFQEYPDEIEYIFKPPCVSVYRCGGCCNDEGLECVPTEESNITMQIMRIKPHQGQHIGEMSFANHTSCRCMSKLD	binds
84-11 (ligand, clone entry) AHYNTEILKFMDVYQRSYCHPIETLVDIFQEFGVATNTFFKPSCVPLMRCGGCCNSEGLQCVPTEESNITMQIMRITVPLSQGPKPVTISFLQHNKCECRPKKDL	binds
44-10 (ligand) AHYNTEILKFMDVYQRSYCHPREVCIDVGKEFGVATNTFFKPSCVPLMRCGGCCNDEGLECMNTSTSYLSKTLFEITVPLSQGPKPVTISFLQHNKCECRPKKD	no binding
23-10 (ligand, clone entry) AHYNTEILKSIDNEWRKTQCMPREVCIDVGKEYPDEIEYIFKPPCVSVYRCGGCCNDEGLECMNTSTSYLSKTLFEITVPLSQGPKPVTISFLQHNKCECRPKKD	no binding
